- Tested on: Staphylococcus aureus
- Assay protocol: Antibacterial activity against methicillin-resistant Staphylococcus aureus 12-31 by broth microdilution method
- Assay type: functional
Measured MIC of individual entries
Property: MIC

CC[C@H]1OC(=O)[C@H](C)[C@@H](O[C@H]2C[C@@](C)(OC)[C@@H](O[C@@H]3O[C@H](C)[C@@H](O)[C@H](N(C)C)[C@H]3OC(=O)c3ccccc3)[C@H](C)O2)[C@H](C)[C@@H](O[C@@H]2O[C@H](C)C[C@H](N(C)C)[C@H]2O)[C@@](C)(OC)C[C@@H](C)C(=O)[C@H](C)[C@H]2OC(=O)O[C@@]21C ... > 32 µg/mL
CC[C@H]1OC(=O)[C@H](C)[C@@H](O[C@H]2C[C@@](C)(OC)[C@@H](O[C@@H]3O[C@H](C)[C@@H](O)[C@H](N(C)C)[C@H]3OC(=O)c3ccccc3)[C@H](C)O2)[C@H](C)[C@@H](O[C@@H]2O[C@H](C)C[C@H](N(C)C)[C@H]2O)[C@@](C)(OC)C[C@@H](C)C(=O)/C(C)=C/[C@]1(C)O ... > 32 µg/mL
CC[C@H]1OC(=O)[C@H](C)[C@@H](O[C@H]2C[C@@](C)(OC)[C@@H](O[C@@H]3O[C@H](C)[C@@H](O)[C@H](N(C)C)[C@H]3O)[C@H](C)O2)[C@H](C)[C@@H](O[C@@H]2O[C@H](C)C[C@H](N(C)C)[C@H]2O)[C@@](C)(OC)C[C@@H](C)C(=O)[C@H](C)[C@@H](O)[C@]1(C)O ... > 32 µg/mL
CC[C@H]1OC(=O)[C@H](C)[C@@H](O[C@H]2C[C@@](C)(OC)[C@@H](O[C@@H]3O[C@H](C)[C@@H](OCc4ccccc4)[C@H](N(C)C)[C@H]3OC(=O)c3ccccc3)[C@H](C)O2)[C@H](C)[C@@H](O[C@@H]2O[C@H](C)C[C@H](N(C)C)[C@H]2O)[C@@](C)(OC)C[C@@H](C)C(=O)[C@H](C)[C@H]2OC(=O)O[C@@]21C ... > 32 µg/mL
CC[C@H]1OC(=O)[C@H](C)[C@@H](O[C@H]2C[C@@](C)(OC)[C@@H](O[C@@H]3O[C@H](C)[C@@H](O)[C@H](N(C)C)[C@H]3O)[C@H](C)O2)[C@H](C)[C@@H](O[C@@H]2O[C@H](C)C[C@H](N(C)C)[C@H]2O)[C@@](C)(OC)C[C@@H](C)C(=O)[C@H](C)[C@H]2OC(=O)O[C@@]21C ... > 32 µg/mL
CC[C@H]1OC(=O)[C@H](C)[C@@H](O[C@H]2C[C@@](C)(OC)[C@@H](O)[C@H](C)O2)[C@H](C)[C@@H](O[C@@H]2O[C@H](C)C[C@H](N(C)C)[C@H]2O)[C@](C)(OC)C[C@@H](C)C(=O)[C@H](C)[C@@H](O)[C@]1(C)O ... > 32 µg/mL
CC[C@H]1OC(=O)[C@H](C)[C@@H](O[C@H]2C[C@@](C)(OC)[C@@H](O[C@@H]3O[C@H](C)[C@@H](O)[C@H](N(C)C)[C@H]3OC(=O)c3ccccc3)[C@H](C)O2)[C@H](C)[C@@H](O[C@@H]2O[C@H](C)C[C@H](N(C)C)[C@H]2O)[C@@](C)(OC)C[C@@H](C)C(=O)[C@H](C)[C@@H](O)[C@]1(C)O ... > 32 µg/mL
CC[C@H]1OC(=O)[C@H](C)[C@@H](O[C@H]2C[C@@](C)(OC)[C@@H](O[C@@H]3O[C@H](C)[C@@H](OCc4ccccc4)[C@H](N(C)C)[C@H]3O)[C@H](C)O2)[C@H](C)[C@@H](O[C@@H]2O[C@H](C)C[C@H](N(C)C)[C@H]2O)[C@@](C)(OC)C[C@@H](C)C(=O)[C@H](C)[C@H]2OC(=O)O[C@@]21C ... > 32 µg/mL
CC[C@H]1OC(=O)[C@H](C)[C@@H](O[C@H]2C[C@@](C)(OC)[C@@H](O[C@@H]3O[C@H](C)[C@@H](OCc4ccccc4)[C@H](N(C)C)[C@H]3O)[C@H](C)O2)[C@H](C)[C@@H](O[C@@H]2O[C@H](C)C[C@H](N(C)C)[C@H]2O)[C@@](C)(OC)C[C@@H](C)C(=O)[C@H](C)[C@@H](O)[C@]1(C)O ... > 32 µg/mL

----------
Listing: MIC of selected compounds
- Test system: Staphylococcus epidermidis
- Assay protocol: Antibacterial activity against methicillin-resistant Staphylococcus epidermidis 12-11 by broth microdilution method
- Assay type: functional
Property: MIC

CC[C@H]1OC(=O)[C@H](C)[C@@H](O[C@H]2C[C@@](C)(OC)[C@@H](O[C@@H]3O[C@H](C)[C@@H](OCc4ccccc4)[C@H](N(C)C)[C@H]3OC(=O)c3ccccc3)[C@H](C)O2)[C@H](C)[C@@H](O[C@@H]2O[C@H](C)C[C@H](N(C)C)[C@H]2O)[C@@](C)(OC)C[C@@H](C)C(=O)[C@H](C)[C@H]2OC(=O)O[C@@]21C ... > 32 µg/mL
CC[C@H]1OC(=O)[C@H](C)[C@@H](O[C@H]2C[C@@](C)(OC)[C@@H](O[C@@H]3O[C@H](C)[C@@H](OCc4ccccc4)[C@H](N(C)C)[C@H]3O)[C@H](C)O2)[C@H](C)[C@@H](O[C@@H]2O[C@H](C)C[C@H](N(C)C)[C@H]2O)[C@@](C)(OC)C[C@@H](C)C(=O)[C@H](C)[C@@H](O)[C@]1(C)O ... > 32 µg/mL
CC[C@H]1OC(=O)[C@H](C)[C@@H](O[C@H]2C[C@@](C)(OC)[C@@H](O[C@@H]3O[C@H](C)[C@@H](OCc4ccccc4)[C@H](N(C)C)[C@H]3OC(=O)c3ccccc3)[C@H](C)O2)[C@H](C)[C@@H](O[C@@H]2O[C@H](C)C[C@H](N(C)C)[C@H]2O)[C@@](C)(OC)C[C@@H](C)C(=O)[C@H](C)[C@@H](O)[C@]1(C)O ... > 32 µg/mL
CC[C@H]1OC(=O)[C@H](C)C(=O)[C@H](C)[C@@H](O[C@@H]2O[C@H](C)C[C@H](N(C)C)[C@H]2O)[C@](C)(OC)C[C@@H](C)C(=O)[C@H](C)[C@H]2N(CCCCn3cnc(-c4cccnc4)c3)C(=O)O[C@]12C ... ≤ 2 µg/mL
CC[C@H]1OC(=O)[C@H](C)[C@@H](O[C@H]2C[C@@](C)(OC)[C@@H](O[C@@H]3O[C@H](C)[C@@H](O)[C@H](N(C)C)[C@H]3OC(=O)c3ccccc3)[C@H](C)O2)[C@H](C)[C@@H](O[C@@H]2O[C@H](C)C[C@H](N(C)C)[C@H]2O)[C@@](C)(OC)C[C@@H](C)C(=O)[C@H](C)[C@H]2OC(=O)O[C@@]21C ... ≤ 1 µg/mL
